- Study system: Multidrug efflux pump subunit AcrB (Escherichia coli (strain K12)) (UniProt P31224)
- Sequence (whole entry): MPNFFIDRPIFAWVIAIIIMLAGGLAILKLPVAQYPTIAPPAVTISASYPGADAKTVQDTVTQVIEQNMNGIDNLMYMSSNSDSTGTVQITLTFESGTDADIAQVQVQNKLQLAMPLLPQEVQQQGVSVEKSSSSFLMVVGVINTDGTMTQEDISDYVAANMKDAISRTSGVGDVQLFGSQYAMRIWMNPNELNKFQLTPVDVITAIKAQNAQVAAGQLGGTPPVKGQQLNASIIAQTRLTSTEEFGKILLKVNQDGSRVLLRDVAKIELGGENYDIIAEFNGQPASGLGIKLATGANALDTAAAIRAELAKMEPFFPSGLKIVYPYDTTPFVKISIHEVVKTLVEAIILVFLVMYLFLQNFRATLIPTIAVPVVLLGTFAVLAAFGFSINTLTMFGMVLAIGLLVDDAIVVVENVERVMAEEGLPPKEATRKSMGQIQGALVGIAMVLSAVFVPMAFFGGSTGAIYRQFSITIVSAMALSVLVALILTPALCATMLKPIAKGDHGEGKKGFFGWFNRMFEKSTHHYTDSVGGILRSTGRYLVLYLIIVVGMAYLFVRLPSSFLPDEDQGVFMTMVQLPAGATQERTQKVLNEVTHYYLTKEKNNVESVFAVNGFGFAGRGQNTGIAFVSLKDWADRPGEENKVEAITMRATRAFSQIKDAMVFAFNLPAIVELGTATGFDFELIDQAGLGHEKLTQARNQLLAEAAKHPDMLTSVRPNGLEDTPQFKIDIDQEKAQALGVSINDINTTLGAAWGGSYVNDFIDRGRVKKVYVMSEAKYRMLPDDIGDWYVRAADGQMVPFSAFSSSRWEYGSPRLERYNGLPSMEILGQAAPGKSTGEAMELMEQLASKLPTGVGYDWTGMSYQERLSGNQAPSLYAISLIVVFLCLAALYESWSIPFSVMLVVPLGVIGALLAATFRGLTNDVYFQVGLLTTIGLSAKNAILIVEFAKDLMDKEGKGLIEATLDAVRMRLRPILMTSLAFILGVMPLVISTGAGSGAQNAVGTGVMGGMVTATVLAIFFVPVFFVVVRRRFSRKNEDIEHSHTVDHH
- Method: Inhibition of AcrB in Escherichia coli BW25113 assessed as potentiation of erythromycin induced antibacterial activity by measuring erythromycin MIC at 128 ug/ml measured after 18 hrs by checkerboard titration method (reference value: 64 ug/ml)
- Experimental setup: dose 128.0 µg/ml
Readout label: MIC (µg/mL)
Provide only the numeric value, understood in µg/mL.

Below, each entry is followed by its recorded MIC result.
Smiles	Study system	Unit	Endpoint value
O=C(NCCc1ccc(O)c(O)c1)c1ccc(Br)cc1	Multidrug efflux pump subunit AcrB (Escherichia coli (strain K12)) (UniProt P31224)	µg/mL	32
O=C(NCCc1ccc(O)c(O)c1)c1ccc(C(F)(F)F)cc1	Multidrug efflux pump subunit AcrB (Escherichia coli (strain K12)) (UniProt P31224)	µg/mL	64
Oc1ccc(CCCCc2ccc(Br)cc2)cc1O	Multidrug efflux pump subunit AcrB (Escherichia coli (strain K12)) (UniProt P31224)	µg/mL	64
Nc1ccc(C(=O)NCCc2ccc(O)c(O)c2)cc1	Multidrug efflux pump subunit AcrB (Escherichia coli (strain K12)) (UniProt P31224)	µg/mL	16

Turning now to a further molecule:
Input: Data request, read-out MIC, for Oc1ccc(CCCCc2ccc(Cl)cc2)cc1O
Output: 64
